Listing of recorded pKi by entry.
- system_under_test: rat CB1 receptor (Rattus norvegicus)
- Construct: membrane preparations from rat brain; from tissue; host or cells: rat brain membranes
- Sequence (P20272 whole entry): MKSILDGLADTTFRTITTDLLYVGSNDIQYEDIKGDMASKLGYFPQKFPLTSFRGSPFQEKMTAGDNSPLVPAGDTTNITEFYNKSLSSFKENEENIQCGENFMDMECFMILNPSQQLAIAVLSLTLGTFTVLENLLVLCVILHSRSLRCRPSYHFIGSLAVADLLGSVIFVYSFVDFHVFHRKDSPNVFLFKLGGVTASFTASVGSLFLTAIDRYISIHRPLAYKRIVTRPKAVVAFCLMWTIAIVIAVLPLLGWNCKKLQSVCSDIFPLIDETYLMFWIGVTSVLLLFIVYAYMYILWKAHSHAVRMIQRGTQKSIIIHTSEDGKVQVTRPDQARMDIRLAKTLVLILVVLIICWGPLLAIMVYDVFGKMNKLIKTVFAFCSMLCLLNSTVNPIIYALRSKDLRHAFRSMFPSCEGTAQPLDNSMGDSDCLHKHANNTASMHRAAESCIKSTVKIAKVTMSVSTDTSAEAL
- protocol_text: Radioligand binding assay with [3H]CP-55,940, rat brain membranes
- test_parameters: rat CB1, [3H]CP-55,940 radioligand; read-out: CB1 affinity Ki
pKi: −log10 of the molar value.
outcome_measure: pKi

INSERT INTO results (compound, outcome_measure, measurement) VALUES
  ('Cc1ccc(NC(=O)Nc2ccn(C3CCOCC3)n2)cc1S(=O)(=O)N1CCCCCC1', 'pKi', 4.79),
  ('Cc1cc(Cl)cn2cc(CNC(=O)C(=O)NC(COc3ccccc3)c3ccccc3)nc12 (stereo not shown)', 'pKi', 4.94),
  ('O=C1Cc2cc(NC(=O)C(=O)NC(CCc3ccccc3)c3ccccc3)ccc2N1 (stereo not shown)', 'pKi', 5.21),
  ('C=CCC1(S(=O)(=O)NC(=O)c2ccc(N3CCCCC3)c(S(=O)(=O)N3CCCCCC3)c2)CC1', 'pKi', 4.92),
  ('O=S(=O)(C1=Cc2cc(Cl)ccc2OC1)N(CCc1ccccn1)Cc1cccnc1', 'pKi', 4.59),
  ('O=C(Nc1ccn(C2CCCCC2)n1)C(=O)NC(CCc1ccccc1)c1ccccc1 (stereo not shown)', 'pKi', 6.21),
  ('CCCC(NS(=O)(=O)C1CC2(CC2)C1)C(=O)Nc1cccc(N2CCCC2)c1 (stereo not shown)', 'pKi', 5.09);

----------
Here's what we have: Ki numbers for human CB1 (Homo sapiens, UniProt P21554).
outcome_measure: Ki

INSERT INTO measurements (compound, system_under_test, measurement) VALUES
  ('O=C1Cc2cc(NC(=O)C(=O)NC(CCc3ccccc3)c3ccccc3)ccc2N1 (centres unmarked) [BRI-13515]', 'human CB1 (Homo sapiens, UniProt P21554)', '940 nM'),
  ('O=C(c1ccc(F)cc1)c1cc(Cl)ccc1NS(=O)(=O)c1cnn(C2CCCCC2)c1 [BRI-13665]', 'human CB1 (Homo sapiens, UniProt P21554)', '390 nM'),
  ('O=C(NCC1(Cc2ccccc2)CC=CCC1)C(=O)Nc1c(F)ccc(Br)c1F (centres unmarked) [BRI-13566]', 'human CB1 (Homo sapiens, UniProt P21554)', '2050 nM'),
  ('O=S(=O)(NC1CC1)c1ccc(S(=O)(=O)NC(CCc2ccccc2)c2ccccn2)cc1 (centres unmarked) [BRI-13661]', 'human CB1 (Homo sapiens, UniProt P21554)', '550 nM'),
  ('O=C(Nc1ccn(C2CCCCC2)n1)C(=O)NC(CCc1ccccc1)c1ccccc1 (centres unmarked) [BRI-13610]', 'human CB1 (Homo sapiens, UniProt P21554)', '760 nM'),
  ('CS(C)(=O)=NS(=O)(=O)c1cccc(C(=O)OCc2cccc3ccsc23)c1 [BRI-13650]', 'human CB1 (Homo sapiens, UniProt P21554)', '3220 nM'),
  ('Cc1cc(Cl)cn2cc(CNC(=O)C(=O)NC(COc3ccccc3)c3ccccc3)nc12 (centres unmarked) [BRI-13520]', 'human CB1 (Homo sapiens, UniProt P21554)', '1070 nM'),
  ('O=S(=O)(C1=Cc2cc(Cl)ccc2OC1)N(CCc1ccccn1)Cc1cccnc1 [BRI-13684]', 'human CB1 (Homo sapiens, UniProt P21554)', '1160 nM');

Where these numbers come from: patent US20220293224A1
